B1: VH:VL chains; a variant is named by its letters at X, in order (parent)
chain 1: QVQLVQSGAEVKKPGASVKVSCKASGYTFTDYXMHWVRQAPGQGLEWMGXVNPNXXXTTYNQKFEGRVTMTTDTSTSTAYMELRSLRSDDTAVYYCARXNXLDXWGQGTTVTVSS
chain 2: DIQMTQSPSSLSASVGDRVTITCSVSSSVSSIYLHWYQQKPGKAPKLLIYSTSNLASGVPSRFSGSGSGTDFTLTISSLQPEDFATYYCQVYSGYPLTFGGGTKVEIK

Variants of: B1
Assay: yeast display scFab, FACS + sequencing
Recorded endpoint: non-specific binding call

{"columns": ["Variant id", "non-specific binding call"],
 "data": [
  ["FGATSFSV", "binds"],
  ["YRRRGAVF", "binds"],
  ["YKGKGSSY", "binds"],
  ["YRGRTAAA", "binds"],
  ["FRKGTALD", "binds"],
  ["FRTGDSAS", "no binding"]
]}

Hi there! I need non-specific binding call for each item below, if you can.
1. FTGRGAVA
2. SEGGSAAY
3. VRRKSSSV
4. SRAGGSLY
5. YRGKDASD
6. VRGAGAWV
7. ARAGSAWA
8. DAERTDGV

1. binds
2. no binding
3. binds
4. binds
5. binds
6. binds
7. binds
8. no binding

Hi there! I need non-specific binding call for each item below, if you can.
1. SAEGGSSA
2. FRTRDVGF
3. YKGGSAGA
4. YRAKGSGD

no binding
binds
binds
binds

Hi there! I need non-specific binding call for each item below, if you can.
1. DTREGDGA
2. YRGAGAVS
3. DAGGGAVY
4. SREAADAV

["no binding", "binds", "no binding", "no binding"]
